This collection of values is drawn from patent US11753408B2.

Test: Solubility at pH 7.4
Type: physicochemical
Measured Sol @ pH 7.4 (ug/mL) values are reported for all entries that follow.

As a guide, the following entries are already answered.
> print(dat)
                               smiles.entry          assay.metric  value.measured
1  CCN(CC)S(=O)(=O)c1ccc(-n2c(=O)ccc3cnc4ccc(-c5ccc(Cl)cc5)cc4c32)cc1  Sol @ pH 7.4 (ug/mL)      <1.0 ug/mL
2  CN(C)Cc1ccc(-c2ccc3ncc4ccc(=O)n(-c5ccc6c(c5)CN(C)C6=O)c4c3c2)cc1  Sol @ pH 7.4 (ug/mL)     >70.0 ug/mL
3  CS(=O)(=O)c1ccc(-n2c(=O)ccc3cnc4ccc(-c5ccc(Cl)cc5)cc4c32)cc1  Sol @ pH 7.4 (ug/mL)      <1.0 ug/mL

-- ask Endpoint output: Sol @ pH 7.4 (ug/mL) of CCN1Cc2cc(-n3c(=O)ccc4cnc5ccc(-c6ccc(CN(C)C)cc6)cc5c43)ccc2C1=O . Value?
-- reply >72.0 ug/mL

====

Molecular target: mTOR (Homo sapiens, UniProt P42345)
Assay: mTOR activity (no method described)
Format: biochemical
assay.metric: mTOR (nM)

(A) N#Cc1cc(-c2ccc3ncc4ccc(=O)n(-c5ccc(C(=O)N6CCOCC6)cc5)c4c3c2)ccc1Cl [Compound 153]
(B) O=C(c1ccc(-n2c(=O)ccc3cnc4ccc(-c5ccc(Cl)cc5)cc4c32)cc1)N1CCCC1 [Compound 106]
(C) O=C(c1ccc(-n2c(=O)ccc3cnc4ccc(-c5ccc(O)cc5)cc4c32)cc1)N1CCOCC1 [Compound 119]
-- ask Reorder the records above by mTOR so that values decrease. Could you list the labels in the order requested?
-- reply A, B, C

====

Assay: PAMPA permeability
Type: in vitro ADME
assay.metric: PAMPA Permeability (×10⁻⁶ cm/s)

Worked examples follow.
> print(dat)
                               smiles.entry  value.measured
1  N#Cc1cc(-c2ccc3ncc4ccc(=O)n(-c5ccc(C(=O)N6CCOCC6)cc5)c4c3c2)ccc1Cl            57.9
2  Cc1cc(C(=O)NCCCN2CCOCC2)ccc1-n1c(=O)ccc2cnc3ccc(-c4ccc(F)cc4)cc3c21             936
3  CN(C)Cc1ccc(-c2ccc3ncc4ccc(=O)n(-c5ccc(C(=O)N(C)C)cc5)c4c3c2)cc1             427

(a) O=C(NC1CC1)c1ccc(-n2c(=O)ccc3cnc4ccc(-c5ccc(F)c(O)c5)cc4c32)cc1
(b) O=C1NCc2cc(-c3ccc4ncc5ccc(=O)n(-c6ccc(C(=O)N7CCOCC7)cc6)c5c4c3)ccc21
-- ask Looking only at measured PAMPA Permeability, which entry is lower, a or b ? API: response body contains the label of the selected item.
-- reply b
(b: 5.4 ×10⁻⁶ cm/s, a: 750 ×10⁻⁶ cm/s)

====

Assay: PAMPA permeability
Type: in vitro ADME
Conditions: PAMPA
assay.metric: PAMPA Permeability (×10^6 cm/s)

> print(dat)
                                    compound     value.measured
 1  CS(=O)(=O)c1ccc(-n2c(=O)ccc3cnc4ccc(-c5ccc(N)nc5)cc4c32)cc1N1CCOCC1 [Compound 83]   58.31 ×10^6 cm/s
 2  CS(=O)(=O)c1ccc(-n2c(=O)ccc3cnc4ccc(-c5ccc(CN)cc5)cc4c32)cc1 [Compound 47]    <2.9 ×10^6 cm/s
 3  NC1(c2ccc(-c3ccc4ncc5ccc(=O)n(-c6ccc7c(c6)CNC7=O)c5c4c3)cc2)CC1 [Compound 373]    <6.3 ×10^6 cm/s
 4  NS(=O)(=O)c1ccc(-n2c(=O)ccc3cnc4ccc(-c5ccc(Cl)cc5)cc4c32)cc1 [Compound 40]    <1.0 ×10^6 cm/s
 5  CN(C)Cc1ccc(-c2ccc3ncc4ccc(=O)n(-c5ccc(S(=O)(=O)NC6CC6)cc5)c4c3c2)cc1 [Compound 57]   527.8 ×10^6 cm/s
 6  CS(=O)(=O)c1cccc(-n2c(=O)ccc3cnc4ccc(-c5ccc(Cl)cc5)cc4c32)c1 [Compound 56]  716.98 ×10^6 cm/s
 7  CS(=O)(=O)c1ccc(-n2c(=O)ccc3cnc4ccc(-c5ccc(Cl)cc5)cc4c32)cc1 [Compound 25]    <1.5 ×10^6 cm/s
 8  CN(C)Cc1ccc(-c2ccc3ncc4ccc(=O)n(-c5ccc6c(c5)CCC(=O)N6C)c4c3c2)cc1 [Compound 358]  1209.2 ×10^6 cm/s
 9  CS(=O)(=O)c1ccc(-n2c(=O)ccc3cnc4ccc(-c5cccc(CN)c5)cc4c32)cc1 [Compound 64]   <12.3 ×10^6 cm/s
10  O=C1NCc2ccc(-n3c(=O)ccc4cnc5ccc(-c6ccc(Cl)cc6)cc5c43)cc21 [Compound 344]   238.8 ×10^6 cm/s

-- ask Query (compound): CS(=O)(=O)c1ccc(-n2c(=O)ccc3cnc4ccc(-c5ccc(Cl)cc5)cc4c32)cc1N1CCOCC1 [Compound 58] ; field requested: PAMPA Permeability (×10^6 cm/s)
-- reply 1527.98 ×10^6 cm/s

-- ask Quick check: PAMPA Permeability (×10^6 cm/s) of Cc1c(C#N)cccc1-n1c(=O)ccc2cnc3ccc(-c4ccc(N)nc4)cc3c21 [Compound 24] ?
-- reply 547.9 ×10^6 cm/s

-- ask Name the recorded PAMPA Permeability (×10^6 cm/s) for Cc1cc(-c2ccc3ncc4ccc(=O)n(-c5ccc(S(C)(=O)=O)cc5)c4c3c2)ccc1Cl [Compound 48] .
-- reply <1.0 ×10^6 cm/s

-- ask GET /values?readout=PAMPA Permeability (×10^6 cm/s)&item= CS(=O)(=O)c1ccc(-n2c(=O)ccc3cnc4ccc(-c5ccc(Cl)cc5)cc4c32)cc1CN1CCNCC1 [Compound 35]
-- reply 35 ×10^6 cm/s

-- ask Which value of PAMPA Permeability (×10^6 cm/s) has been reported for CS(=O)(=O)c1ccc(-n2c(=O)ccc3cnc4ccc(-c5ccc(C=O)cc5)cc4c32)cc1 [Compound 65] in the records?
-- reply 5.4 ×10^6 cm/s

-- ask What does the data say about its PAMPA Permeability (×10^6 cm/s)? Entry: CN(C)C(=O)c1cc(-c2ccc3ncc4ccc(=O)n(-c5ccc(S(C)(=O)=O)cc5)c4c3c2)ccc1Cl [Compound 50]
-- reply 164.4 ×10^6 cm/s

-- ask Consider the compound CN(C)CCc1ccc(-c2ccc3ncc4ccc(=O)n(-c5ccc6c(c5)CNC6=O)c4c3c2)cc1 [Compound 375] and give its measured PAMPA Permeability (×10^6 cm/s).
-- reply <1.1 ×10^6 cm/s

-- ask # query: PAMPA Permeability (×10^6 cm/s) of entry CN(C)Cc1cc(-n2c(=O)ccc3cnc4ccc(-c5ccc(Cl)cc5)cc4c32)ccc1S(C)(=O)=O [Compound 67]
-- reply 1449.1 ×10^6 cm/s

====

Reported Sol @ pH 7.4 (ug/mL) is given for each of the following molecules.
Experiment: Solubility at pH 7.4
Assay type: physicochemical

> print(dat)
                               smiles.entry  value.measured
1  CS(=O)(=O)c1ccc(-n2c(=O)ccc3cnc4ccc(-c5ccc(Cl)c(N)c5)cc4c32)cc1C(F)(F)F      <1.0 ug/mL
2  CN(C)Cc1ccc(-c2ccc3ncc4ccc(=O)n(-c5ccc6c(c5)C(=O)N(C)C6=O)c4c3c2)cc1     >72.0 ug/mL
3  O=C1NCc2cc(-n3c(=O)ccc4cnc5ccc(-c6ccc(CN7CCC7)cc6)cc5c43)ccc21       >70 ug/mL
4  COc1cc(-c2ccc3ncc4ccc(=O)n(-c5ccc(S(C)(=O)=O)cc5)c4c3c2)ccc1Cl      <1.0 ug/mL
5  CN(C)Cc1ccc(-c2ccc3ncc4ccc(=O)n(-c5cccc(S(C)(=O)=O)c5)c4c3c2)cc1    >71.00 ug/mL

-- ask Query: Sol @ pH 7.4 (ug/mL); subject: NS(=O)(=O)c1ccc(-n2c(=O)ccc3cnc4ccc(-c5ccc(Cl)cc5)cc4c32)cc1
-- reply <1.0 ug/mL

====

Assay: Solubility at pH 7.4
Type: physicochemical
// reported Sol @ pH 7.4 (ug/mL) per item

Some molecules with known Sol @ pH 7.4 (ug/mL) results, for comparison:
> print(dat)
                                   molecule          assay.metric  value.measured
1  O=c1ccc2cnc3ccc(-c4ccc(Cl)cc4)cc3c2n1-c1ccc(S(=O)(=O)NC2CC2)cc1  Sol @ pH 7.4 (ug/mL)      <1.0 ug/mL
2  Cc1cc(N2CCNCC2)c(C#N)cc1-n1c(=O)ccc2cnc3ccc(-c4ccc(Cl)cc4)cc3c21 [Compound 4]  Sol @ pH 7.4 (ug/mL)        <1 ug/mL
3  CS(=O)(=O)c1ccc(-n2c(=O)ccc3cnc4ccc(-c5ccc(C=O)cc5)cc4c32)cc1  Sol @ pH 7.4 (ug/mL)        <1 ug/mL

-- ask Report Sol @ pH 7.4 (ug/mL) for CS(=O)(=O)c1ccc(-n2c(=O)ccc3cnc4ccc(-c5ccc(N)nc5)cc4c32)cc1 please.
-- reply <1.0 ug/mL

-- ask Which value of Sol @ pH 7.4 (ug/mL) has been reported for O=C1CCc2cc(-n3c(=O)ccc4cnc5ccc(-c6ccc(Cl)cc6)cc5c43)ccc2N1 in the records?
-- reply <0.10 ug/mL

-- ask Which Sol @ pH 7.4 (ug/mL) is reported for this molecule? N#Cc1ccc(-n2c(=O)ccc3cnc4ccc(-c5ccc(N)nc5)cc4c32)cc1
-- reply <1.0 ug/mL

-- ask Recorded Sol @ pH 7.4 (ug/mL) of CN(C)C=NS(=O)(=O)c1ccc(-n2c(=O)ccc3cnc4ccc(-c5ccc(Cl)cc5)cc4c32)cc1 , please.
-- reply <1.0 ug/mL
